- Tested on: Male Wiga Wistar rats
- ASSAY_TEXT: Reversal of LY-404039-induced decrease of palpebral opening in apomorphine-challenged rats
- Format: in vivo
- CONDITION_CONTEXT: Rattus norvegicus, Route PO; reversal of LY-404039-induced decrease of palpebral opening (cumulative score >26) in apomorphine challenged rats

MOLECULE: CCOc1cc(N2C[C@@H](C)n3ncc(-c4ccnc(C)c4)c3C2=O)ccc1C(F)(F)F
DISPLAY_UNIT: mg/kg
MEASUREMENT_QUALIFIER: ≥
ED50: 10

MOLECULE: CNc1cc(-c2cnn3c2C(=O)N(c2ccc(C(F)(F)F)cc2)C[C@@H]3C)ccn1
DISPLAY_UNIT: mg/kg
MEASUREMENT_QUALIFIER: =
ED50: 1.26

MOLECULE: Cc1cc(-c2cnn3c2C(=O)N(c2ccc(C(F)(F)F)cc2)C[C@@H]3C)ccn1
DISPLAY_UNIT: mg/kg
MEASUREMENT_QUALIFIER: =
ED50: 0.45

MOLECULE: CCc1cc(-c2cnn3c2C(=O)N(c2ccc(C(F)(F)F)cc2)C[C@@H]3C)ccn1
DISPLAY_UNIT: mg/kg
MEASUREMENT_QUALIFIER: =
ED50: 0.32

----------
- TGT: human mGlu2 receptor (Homo sapiens)
- Construct: expressed in transfected cells; host or cells: CHO cells (membrane preparation)
- ASSAY_TEXT: [35S]GTPγS binding assay (mGluR2 negative allosteric modulation)
- Assay type: biochemical
- CONDITION_CONTEXT: relative maximal effect: maximal % inhibition relative to the control glutamate response; read-out: GTPγS - hmGluR2 anGT Emax
- Experimental: 1) [^35S]GTPγS binding assay The [^35S]GTPγS binding assay is a functional membrane-based assay used to study G-protein coupled receptor (GPCR) function whereby incorporation of a non-hydrolysable form of GTP, [^35S]GTPγS (guanosine 5′-triphosphate, labelled with gamma-emitting ^35S), is measured. […] CHO-cells were cultured to pre-confluence and stimulated with 5 mM butyrate for 24 h. […] Protein concentration was determined by the Bradford method (Bio-Rad, USA) with bovine serum albumin as standard. […]
This section presents compounds with their documented Emax values.

COMPOUND: Cc1cc(-c2cnn3c2C(=O)N(c2cc(Cl)cc(Cl)c2)C[C@@H]3C)ccn1
Emax (%): 104
--
COMPOUND: Cc1cc(-c2cnn3c2C(=O)N(c2ccc(Cl)c(C)c2)C[C@@H]3C)ccn1
Emax (%): 102
--
COMPOUND: CC(O)c1cc(-c2cnn3c2C(=O)N(c2ccc(Cl)c(Cl)c2)C[C@@H]3C)ccn1 (some centres unmarked)
Emax (%): 108
--
COMPOUND: C[C@H]1CN(c2ccc(C(F)(F)F)c(C#N)c2)C(=O)c2c(-c3ccncc3)cnn21
Emax (%): 103
--
COMPOUND: COCC1CN(c2ccc(Cl)c(Cl)c2)C(=O)c2c(-c3ccnc(C)c3)cnn21 (centres unmarked) [compound 143]
Emax (%): 104
--
COMPOUND: CCOc1nc(N2C[C@H](C)n3ncc(-c4ccncc4)c3C2=O)ccc1C(F)(F)F
Emax (%): 107
--
COMPOUND: Cc1cc(N2C[C@H](C)n3ncc(-c4ccncc4)c3C2=O)ccc1C(F)(F)F
Emax (%): 103
--
COMPOUND: Cc1cc(-c2cnn3c2C(=O)N(c2ccc(S(F)(F)(F)(F)F)cc2)C[C@@H]3C)cc(C)n1
Emax (%): 102

----------
- TGT: human mGlu2 receptor (Homo sapiens)
- Construct: expressed in transfected cells; host or cells: CHO cells (membrane preparation)
- ASSAY_TEXT: [35S]GTPγS binding assay (mGluR2 negative allosteric modulation)
- Format: biochemical
- CONDITION_CONTEXT: membranes from CHO cells transfected with human mGlu2 receptor; glutamate 60 μM; pIC50 = −log IC50 (M); read-out: GTPγS - hmGluR2 anGT pIC50 (converted)
This section presents compounds with their documented IC50 values.

COMPOUND: CNc1cc(-c2cnn3c2C(=O)N(c2ccc(C(F)(F)F)cc2)C[C@@H]3C)ccn1
IC50, M: 5.75e-09
--
COMPOUND: CC(C)Oc1cc(-c2cnn3c2C(=O)N(c2ccc(Cl)c(Cl)c2)C[C@@H]3C)ccn1
IC50, M: 1.82e-08
--
COMPOUND: COc1cc(-c2cnn3c2C(=O)N(c2ccc(Cl)cc2)C[C@@H]3C)ccn1
IC50, M: 4.17e-08
--
COMPOUND: Cc1cc(-c2cnn3c2C(=O)N(c2ccc(C(F)F)c(Cl)c2)C[C@@H]3C)ccn1
IC50, M: 1e-08
--
COMPOUND: CC[C@H]1CN(c2ccc(C(F)(F)F)cc2)C(=O)c2c(-c3ccnc(C)c3)cnn21
IC50, M: 1.7e-08
--
COMPOUND: CCOc1cc(N2C[C@H](C)n3ncc(-c4cc(C)nc(C)c4)c3C2=O)ccc1C(F)(F)F
IC50, M: 8.71e-09
--
COMPOUND: Cc1cc(-c2cnn3c2C(=O)N(c2ccc(C(F)F)cc2)C[C@@H]3C)ccn1
IC50, M: 1.29e-07
--
COMPOUND: Cc1cc(-c2cnn3c2C(=O)N(c2ccc(C(F)(F)F)cn2)CC3)ccn1
IC50, M: 3.72e-06
--
COMPOUND: Cc1cc(-c2cnn3c2C(=O)N(c2ccc(Cl)cn2)C[C@@H]3C)ccn1
IC50, M: 3.24e-07
--
COMPOUND: CCOc1nc(N2C[C@H](C)n3ncc(-c4ccnc(C)c4)c3C2=O)ccc1C(F)(F)F (single isomer, unassigned) [compound 200]
IC50, M: 5.89e-09
--
COMPOUND: Cc1cc(-c2cnn3c2C(=O)N(c2ccc(Cl)cc2)C[C@@H]3C)cc(C)n1
IC50, M: 1.07e-07
--
COMPOUND: CNc1cc(-c2cnn3c2C(=O)N(c2ccc(C(F)(F)F)cc2)C[C@@H]3C)cc(C)n1
IC50, M: 1.82e-08
--
COMPOUND: C[C@H]1CN(c2ccc(C(F)(F)F)cc2)C(=O)c2c(-c3ccnc(N(C)C)c3)cnn21
IC50, M: 2.51e-09
--
COMPOUND: CNc1cc(-c2cnn3c2C(=O)N(c2ccc(C(F)(F)F)c(OC)c2)C[C@@H]3C)ccn1
IC50, M: 2.29e-08
--
COMPOUND: COc1cc(N2C[C@H](C)n3ncc(-c4ccnc(C)c4)c3C2=O)ccc1Cl
IC50, M: 6.92e-08
--
COMPOUND: CCOc1cc(N2C[C@H](C)n3ncc(-c4ccncc4)c3C2=O)ccc1C(F)(F)F
IC50, M: 1.62e-08

----------
This section presents compounds with their documented Emax values.
- TGT: human mGlu2 receptor (Homo sapiens, UniProt Q14416)
- Construct: expressed in transfected cells; host or cells: CHO cells (membrane preparation)
- Sequence (Q14416 19-872): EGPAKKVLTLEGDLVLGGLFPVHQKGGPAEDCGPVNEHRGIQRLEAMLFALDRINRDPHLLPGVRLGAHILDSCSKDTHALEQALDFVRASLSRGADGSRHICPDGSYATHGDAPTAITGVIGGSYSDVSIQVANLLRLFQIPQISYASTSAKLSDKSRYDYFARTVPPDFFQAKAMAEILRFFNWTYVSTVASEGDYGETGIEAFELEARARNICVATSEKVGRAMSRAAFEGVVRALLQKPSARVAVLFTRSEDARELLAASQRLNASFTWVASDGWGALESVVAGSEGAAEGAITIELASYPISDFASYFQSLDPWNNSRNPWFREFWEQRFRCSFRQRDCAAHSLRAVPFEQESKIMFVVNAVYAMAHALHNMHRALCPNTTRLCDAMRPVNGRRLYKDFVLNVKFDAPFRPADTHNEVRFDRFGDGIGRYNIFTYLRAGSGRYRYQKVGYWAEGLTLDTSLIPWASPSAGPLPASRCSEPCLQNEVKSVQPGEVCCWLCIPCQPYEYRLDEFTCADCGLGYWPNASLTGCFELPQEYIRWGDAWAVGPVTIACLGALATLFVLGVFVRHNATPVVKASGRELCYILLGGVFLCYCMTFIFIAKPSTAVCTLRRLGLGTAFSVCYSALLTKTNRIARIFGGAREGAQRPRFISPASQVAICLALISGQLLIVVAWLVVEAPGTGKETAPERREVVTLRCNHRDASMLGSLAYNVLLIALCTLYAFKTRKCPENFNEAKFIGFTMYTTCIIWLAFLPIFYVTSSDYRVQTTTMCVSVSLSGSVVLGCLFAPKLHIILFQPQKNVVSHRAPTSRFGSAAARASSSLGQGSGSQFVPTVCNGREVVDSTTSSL
- ASSAY_TEXT: [35S]GTPγS binding assay (mGluR2 negative allosteric modulation)
- Assay type: biochemical
- CONDITION_CONTEXT: relative maximal effect: maximal % inhibition relative to the control glutamate response; read-out: GTPγS - hmGluR2 anGT Emax
READOUT_TYPE: Emax (%)

COMPOUND: Cc1cc(-c2cnn3c2C(=O)N(c2ccc(C(F)(F)F)cn2)C[C@@H]3C)cc(C)n1
MEASURED_VALUE: 107
--
COMPOUND: C[C@H]1CN(c2ccc(C(F)(F)F)cc2)C(=O)c2c(-c3ccnc(N4CC(F)C4)c3)cnn21
MEASURED_VALUE: 108
--
COMPOUND: C[C@H]1CN(c2ccc(Cl)c(Cl)c2)C(=O)c2c(-c3ccnc(CF)c3)cnn21
MEASURED_VALUE: 109
--
COMPOUND: COCC1CN(c2ccc(Cl)c(Cl)c2)C(=O)c2c(-c3ccnc(C)c3)cnn21 (single isomer, unassigned) [compound 118]
MEASURED_VALUE: 105
--
COMPOUND: C[C@H]1CN(c2ccc(C(F)(F)F)cc2)C(=O)c2c(-c3ccc(N4CCNCC4)nc3)cnn21
MEASURED_VALUE: 85
--
COMPOUND: COc1nc(N2C[C@H](C)n3ncc(-c4ccnc(N(C)C)c4)c3C2=O)ccc1C(F)(F)F
MEASURED_VALUE: 120
--
COMPOUND: Cc1cc(-c2cnn3c2C(=O)N(c2ccc(C(C)O)cc2)C[C@@H]3C)ccn1 (stereo partly shown)
MEASURED_VALUE: 49

----------
This section presents compounds with their documented melting point values.
Structures can show the parent of a compound that is named as a salt.

COMPOUND: Cc1cc(-c2cnn3c2C(=O)N(c2ccc(C(F)(F)F)cc2)C[C@@H]3C)cnc1C
MEASUREMENT_QUALIFIER: =
melting point, °C: 140.8

COMPOUND: Cc1cc(-c2cnn3c2C(=O)N(c2ccc(F)c(C)c2)C[C@@H]3C)ccn1
MEASUREMENT_QUALIFIER: =
melting point, °C: 219.2

COMPOUND: C[C@H]1CN(c2ccc(C(F)(F)F)cc2)C(=O)c2c(-c3ccnc(N4CCCCC4)c3)cnn21 (as salt: HCl)
MEASUREMENT_QUALIFIER: =
melting point, °C: 294

COMPOUND: CCOc1nc(N2C[C@H](C)n3ncc(-c4cc(C)nc(C)c4)c3C2=O)ccc1C(F)(F)F
MEASUREMENT_QUALIFIER: =
melting point, °C: 179.2

COMPOUND: Cc1cc(-c2cnn3c2C(=O)N(c2ccc(C(F)(F)F)c(C#N)c2)C[C@@H]3C)ccn1
MEASUREMENT_QUALIFIER: =
melting point, °C: 128.9

COMPOUND: C[C@H]1CN(c2ccc(C(F)(F)F)c(Cl)c2)C(=O)c2c(-c3ccnc(C#N)c3)cnn21
MEASUREMENT_QUALIFIER: =
melting point, °C: 144.9

COMPOUND: CC(C)Oc1cc(-c2cnn3c2C(=O)N(c2ccc(C(F)(F)F)cc2)C[C@@H]3C)ccn1 (as salt: HCl)
MEASUREMENT_QUALIFIER: =
melting point, °C: 173.9

COMPOUND: COc1cc(-c2cnn3c2C(=O)N(c2ccc(C(F)(F)F)c(OC)c2)C[C@@H]3C)ccn1
MEASUREMENT_QUALIFIER: =
melting point, °C: 76.8

COMPOUND: CC(C)Nc1cc(-c2cnn3c2C(=O)N(c2ccc(C(F)(F)F)cc2)C[C@@H]3C)ccn1
MEASUREMENT_QUALIFIER: =
melting point, °C: 173.08

COMPOUND: Cc1cc(-c2cnn3c2C(=O)N(c2ccc(SC(F)(F)F)cc2)C[C@@H]3C)ccn1 (as salt: HCl)
MEASUREMENT_QUALIFIER: >
melting point, °C: 300

COMPOUND: COc1ccc(N2C[C@H](C)n3ncc(-c4ccnc(C)c4)c3C2=O)cc1OC
MEASUREMENT_QUALIFIER: =
melting point, °C: 166.9

COMPOUND: CCOc1nc(N2C[C@H](C)n3ncc(-c4ccnc(C)c4)c3C2=O)ccc1Cl
MEASUREMENT_QUALIFIER: =
melting point, °C: 119.7

COMPOUND: COc1cc(N2C[C@H](C)n3ncc(-c4ccnc(C)c4)c3C2=O)ccc1Cl
MEASUREMENT_QUALIFIER: =
melting point, °C: 137

COMPOUND: CCOc1cc(N2CC(CO)n3ncc(-c4ccnc(C)c4)c3C2=O)ccc1C(F)(F)F (stereo not shown)
MEASUREMENT_QUALIFIER: =
melting point, °C: 99.1

COMPOUND: Cc1cc(-c2cnn3c2C(=O)N(c2ccc(OC(F)F)cc2)C[C@@H]3C)ccn1
MEASUREMENT_QUALIFIER: =
melting point, °C: 137.1

COMPOUND: CC(C)c1cc(-c2cnn3c2C(=O)N(c2ccc(C(F)(F)F)cc2)C[C@@H]3C)ccn1
MEASUREMENT_QUALIFIER: =
melting point, °C: 70.5
